Molecular target: T1, human CAPRIN-1 protein on the cell surfaces of human cancer cell lines and in human cancer tissues (human, UniProt Q14444 2-709); also: test concentration or dose not given here
T1 sequence (looked up): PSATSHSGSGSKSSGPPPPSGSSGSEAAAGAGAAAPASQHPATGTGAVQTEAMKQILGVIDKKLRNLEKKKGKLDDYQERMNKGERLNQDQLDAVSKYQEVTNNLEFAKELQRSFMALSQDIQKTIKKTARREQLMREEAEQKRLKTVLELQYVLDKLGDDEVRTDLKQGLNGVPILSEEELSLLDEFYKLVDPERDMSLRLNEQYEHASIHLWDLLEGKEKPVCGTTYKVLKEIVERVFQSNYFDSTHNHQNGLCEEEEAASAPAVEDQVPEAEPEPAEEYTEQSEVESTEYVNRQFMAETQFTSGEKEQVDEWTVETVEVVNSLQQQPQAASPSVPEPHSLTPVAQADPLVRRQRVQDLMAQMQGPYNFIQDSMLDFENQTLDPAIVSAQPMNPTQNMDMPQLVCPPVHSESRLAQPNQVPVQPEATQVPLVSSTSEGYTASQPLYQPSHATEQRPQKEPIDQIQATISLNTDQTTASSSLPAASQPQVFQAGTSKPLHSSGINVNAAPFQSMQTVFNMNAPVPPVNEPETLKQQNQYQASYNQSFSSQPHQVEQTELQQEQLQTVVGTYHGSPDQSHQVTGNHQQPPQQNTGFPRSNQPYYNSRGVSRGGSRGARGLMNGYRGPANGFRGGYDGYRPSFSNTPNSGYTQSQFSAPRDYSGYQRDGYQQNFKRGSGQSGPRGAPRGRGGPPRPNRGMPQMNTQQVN
Assay: cell-based or functional assay
Exercise: for every item that follows, state its recorded cytotoxic activity (ADCC) against MDA-MB-157.
Just the number plus its unit, please.

Entry anti-CAPRIN-1 mouse monoclonal antibody #6 (antibody, V domains shown, Mouse hybridoma antibody; detected with anti-mouse IgG) VH: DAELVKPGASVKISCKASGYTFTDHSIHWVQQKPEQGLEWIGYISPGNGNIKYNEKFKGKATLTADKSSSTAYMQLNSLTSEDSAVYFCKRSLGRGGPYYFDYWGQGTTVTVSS VL: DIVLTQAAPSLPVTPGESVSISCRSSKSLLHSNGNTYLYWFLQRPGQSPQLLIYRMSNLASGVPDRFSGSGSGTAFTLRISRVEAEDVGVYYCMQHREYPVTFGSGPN — recorded cytotoxic activity (ADCC) against MDA-MB-157 = 19%

Entry human-chicken chimeric antibody #1 having the chicken monoclonal antibody #1 variable region (antibody, V domains shown, also called anti-CAPRIN-1 antibody #1; human-chicken chimeric monoclonal antibody (#1); not shown: human IgG1 H-chain constant region; human IgG1 L-chain constant region) VH: AVTLDESGGGLQMSRGGLSLVCKASGFDFSSYQMNWIRQAPGKGLEFVAAINKFGNSTGHGAAVKGRVTISRDNGQSTVRLQLNNLRAEDTAIYFCTKHAYGYCGSGTWCAAGEIDAWGHGTEVIVSS VL: QAASTQPSSVSANPGETVEITCSGGGSYSYGWFQQKSPGSAPVTVIYYNNKRPSDIPSRFSGSKSGSTGTLTITGVQADDEAVYYCGSGDSTDTAVFGAGTTLTVLG — recorded cytotoxic activity (ADCC) against MDA-MB-157 = 40%

Entry anti-CAPRIN-1 mouse monoclonal antibody #5 (antibody, V domains shown, Mouse hybridoma antibody; detected with anti-mouse IgG) VH: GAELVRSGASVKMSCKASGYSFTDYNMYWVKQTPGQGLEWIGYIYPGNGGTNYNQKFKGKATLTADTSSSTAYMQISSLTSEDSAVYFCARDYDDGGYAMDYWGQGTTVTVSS VL: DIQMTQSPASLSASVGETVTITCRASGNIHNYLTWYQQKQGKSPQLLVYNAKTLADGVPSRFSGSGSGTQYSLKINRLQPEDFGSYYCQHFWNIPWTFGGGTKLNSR — recorded cytotoxic activity (ADCC) against MDA-MB-157 = 30.9%

Entry anti-CAPRIN-1 mouse monoclonal antibody #4 (antibody, V domains shown) VH: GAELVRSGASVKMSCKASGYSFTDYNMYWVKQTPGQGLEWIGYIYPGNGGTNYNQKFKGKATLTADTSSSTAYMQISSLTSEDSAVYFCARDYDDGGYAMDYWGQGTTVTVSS VL: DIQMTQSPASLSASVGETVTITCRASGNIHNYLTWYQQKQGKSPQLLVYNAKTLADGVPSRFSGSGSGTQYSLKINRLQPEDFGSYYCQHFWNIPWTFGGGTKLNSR — recorded cytotoxic activity (ADCC) against MDA-MB-157 = 31%
